Test system: K4 kissing-loop RNA reporter;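 also: bound reporter read as fluorescence of individual clusters on recovered sequencing chips by microscopy, with normalized cluster intensities fitted with a binding model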
measurementNotes: apparent KD of K4 kissing-loop reporter; higher = weaker reporter binding
assayContext: Eterna round: R107; input ligand: none

constructSequence	apparent KD of K4 kissing-loop reporter
CCUAUCUCAUACGAUACCAGUCAAUGAGAUUUUAUCAAUGCCAUCACCGAGUGAUGUUCGGACCCUUGGCAGCGUAUGGGAUAGG [#02 K4 Theophylline B Exclusion]	217 nM
ACAGGAAUCUUUGAUACCAGAACCCGUCUACCUCCAUCCUUGGAGCAUAGUGAUGUUGUGUUCCCUUGGCAGCAAUAGGGCACAU [theeternabot_exclusion_KL_Theo_B_34]	632 nM
GGUGCUGUCUGUGCCGCCUUCCUCGUUCCUCGAGGACCGGUACGGCCGCCACUCGAGUGAUGUUUGGGUAGCGAUCCCUGCUAGC [Bdazzled - #15 Exc. Tryptophan A]	1180 nM
UAUCCUCGCUGAAGGAGCGAGCAUGAAGCAGUGAUGUUCCGAGCGAGUGAUGUUCGCAUAGCUCAGGUAGGUCGCAGUGGGAUUU [Same State Arginie B GF 17]	1030 nM
CGGCUCAAUCCUAGUAUUAAGAGGGAGUUGCGAGGACCGGUACGGCCGCCACUCGAAGUAGUUUGGCCAGUGAUGUUGGUCUUAC [Mabeleon]	210 nM
GGUAGCUAGGUAGGAUAUAGCUAGUGGAGUGAUGUUCCACGAUACACGAGUGAUGUUCGUACCCUGCUAGAAGGGCCUAGCUACC	168 nM

###

Test system: MS2 coat protein
measurementNotes: apparent KD of MS2 coat protein, switch OFF state (with FMN for OFF switches, without FMN for ON switches); designed switch direction (-1 OFF switch, 1 ON switch): -1; higher = weaker reporter binding
assayContext: FMN input: 0 or 200 uM; Eterna round: R93 (includes R88 designs)
Form field: apparent KD of MS2 coat protein (one value per entry).
valueType: apparent KD of MS2 coat protein (nM)

constructSequence	measuredResult
AAAAAACAUGAGGAUCACCCAUGUGAGGAUAUGAUGCGAAUAAAGAAAGAAUAAAGCAUCAGAAGGCACAAAAA [Mat - Exclusion 1 - Eli mod - D62]	49.6
AAACCACAUGAGGAUCACCCAUGUCAGGAUAUGCACGAAAAUAAAUAAAAAUAAAAGUGCAGAAGGGACUAAAA [66%, Wbt, 14]	45
AAAAAACAUGAGGAUCACCCAUGUCAGGAUAUCCGAAAAAAAAAAAAAAAAAAACCUUGGAGAAGGGACAUUCC [Chica Displaced 6 - Jieux - Exclusion 1]	34.4
AUCAUCCUAGGAUAUACAUGGAUAUACAUUCAUGUGGACCUACAUGAGGAUCACCCAUGUAGAAGGAGGAUGAA [Mat - Same state - Mayanna Mod - D139]	75.1
AGUAGAUCAGGAUAUACAUAAAUGAUAAUUAUGUAAUUUCUACAUGAGGAUCACCCAUGUAGAAGGGAUCUACA [Ex2 Design 136: Not so Super Stable 24]	15.2
AAGAUGUUAGGAUAUGCUGCUCGUCACAAAAGUGAUGAGUAGCAGAAGGGACAUGAGGAUCACCCAUGUAAAGA [JL eternac mod 6]	34.8
AAAAAGGCAGGAUAUACAAAACAGGGAAACCUGAAAGGGAAACAUGAGGAUCACCCAUGUAGAAGGGCCAAGAA [Clint Eastwood 64% 1]	95.4
AAGGGACAUGAGGAUCACCCAUGUAAGGAUAUGCUAUGGAAAAUAAAAAUAAAACAUAGCAGAAGGUACAAAAA [Denovo 15]	135
AAAAAAGGAGGAUAUACAUGAGGAUCACCCAUGUAAAAAGGGAAAAAAAAAAAAAAAAGUAGAAGGCCUAAAAA [JR_Exc003_Sub1701]	65.1
GAAAAACAUGAGGAUCACCCAUGUAAGGAUAUGCUAAAAAACACGGAAAAACGUGAUAGCAGAAGGUACAAAAA [Mat - Exclusion 1 - Eli mod - D89]	36.5
AUCAUGUAAGGAUAUUAAAGAAAAGAAAAGAAAGAAAAGAAUAAGAAGGUACAUGAGGAUCACCCAUGUAAGAA [EteRNA is fun!]	17
AGCUAGUCAGGAUAUACGAACAUGUCAAAAGACGUGAAAUAACAUGAGGAUCACCCAUGUAGAAGGGACUAGCA [Mat - Exclusion 2 - JL-Eli mod - D52]	15.5
GGAUGCGUAGGAUAUACAUGAGGAUCACCCAUGUGAGAGAAAAAAGUGAGAAAGAAAAGUAGAAGGACGUGUCG [salish99-ex3-90]	85.6
AACUAGUGAGGAUAUACAAGAAUAUAAACAAAAAUGAAGGGACAUGAGGAUCACCCAUGUAGAAGGCACUAACA [Diamond 71]	106
AAAGUGUGAGGAUAUGUGAAAGGACACGAAAGUGACAAAGAACAGAAGGUACAUGAGGAUCACCCAUGUAAAAA [milkweed 20]	23.5
AGCUAGUCAGGAUAUACGAACAGGUCAAAAGACGUGAAGGGACAUGAGGAUCACCCAUGUAGAAGGGACUAGCA [Mat - Exclusion 2 - JL mod - D23]	116
AUACGCUGAGGAUAUACCGAAACAACAUCCUCGUGUAUAAUACAUGAGGAUCACCCAUGUAGAAGGCAGUAAAA [Usmaan]	85.5
UUUAUGUGAGGAUAUGUACAGAAAAAAAAGGGUGUAACUGUACAGAAGGCACAUGAGGAUCACCCAUGUGCAUU [EX4 382: S S Pseudoknot 7]	21.8
AAAAAGGGAGGAUAUACGAAACAGGGAAACCUGAAAAGGAGACAUGAGGAUCACCCAUGUAGAAGGCCCAAGAA [Clint Eastwood 64% 4]	53.3
AAAAAACAUGAGGAUCACCCAUGUAAGGAUAUGCUGAAAAACACGGAAAAACGUGACAGCAGAAGGUACAAAAG [Mat - Exclusion 1 - Eli mod - D93]	84
GAAAAACAUGAGGAUCACCCAUGUAAGGAUAUGCGAAAAUAAAAUAAAAUAAAAUAAAGCAGAAGGUACAAAAA [Mat - Exclusion 1 - Eli mod - D1]	40.5
AAAAAGCGAGGAUAUACGAGUCAAAGAAAAGACAAAAGGGAACAUGAGGAUCACCCAUGUAGAAGGCGCAAAAA [Fiskers exclusion D2 62% 2]	100
AAUCCACAUGAGGAUCACCCAUGUGAGGAUAUCGUGCAGAAAAAAAAAAAAAACUGCACGAGAAGGCACAUGGA	20.2
AAAAAUGGAGGAUAUACAUGAGGAUCACCCAUGUGUGGGCAUACUAUGUGGGCGUCAGGUAGAAGGCCAAAAAA [Gilly Gone Silly 25 - Jieux - Exclusion 3]	273

###

Form field: apparent KD of MS2 coat protein (one value per entry).
Tested on: MS2 coat protein
measurementNotes: apparent KD of MS2 coat protein; designed switch direction (-1 OFF switch, 1 ON switch): -1; higher = weaker reporter binding
assayContext: input ligand: none
valueType: apparent KD of MS2 coat protein (nM)

constructSequence	valueType	unitSpec	measuredResult
AGGGUAAAGUUAGGAUAUGCGAAUAAUCCAGACGCAGAAGGAACAGGUCGCAUGUGAGUCACAUGAGGAUCACCCAUGUAACUA [Ceissoar] (Eterna round: R96, puzzle: Exclusion NG 1)	apparent KD of MS2 coat protein	nM	36.1
GCCGAAAGUGUGAGGAUAUACCUAUGGAAACAUAGGUAGAAGGCACAUGAGGAUCACCCAUGUGUUUCAACGGC [Mat - Exclusion 4 - Eli Mod - D20] (Eterna round: R97, puzzle: Brourd's mod of Exclusion 4)	apparent KD of MS2 coat protein	nM	24.5
GAGUGCUGAGGAUAUACAUGAGGAUCACCCAUGUGCUUCAGCUAGGAGACUAGCUUUGGUAGAAGGCAGUACUC [Mod of lroppy 23 - Jieux - Exclusion 3] (Eterna round: R97, puzzle: Exclusion 3)	apparent KD of MS2 coat protein	nM	14.2
AGUUGGGAAGGAUAUACAUGAGGAUCACCCAUGUGAAAUUAUAGUGAGGAAAUGAAAAGUAGAAGGUCCUGACA [Mod of Mat 4 - Jieux - Exclusion 3] (Eterna round: R97, puzzle: Exclusion 3)	apparent KD of MS2 coat protein	nM	35.8
CUUUUGUGAGGAUAUCUGGCUUCGAUCGUGAGAUCGAGGCUAGAGAAGGCACAUGAGGAUCACCCAUGUUCCUU [jl-ex4-4.05 salish99 mod] (Eterna round: R97, puzzle: Exclusion 4)	apparent KD of MS2 coat protein	nM	19.9
UUAGAUAGGUCAGGAUAUCGAUGAUUGAAUAGUAUGAUUUACAUGAGGAUCACCCAUGUUAAAUACGAGAAGGGACGUUAGAUU [JR_ExcNG2_Sub021] (Eterna round: R96, puzzle: Exclusion NG 2)	apparent KD of MS2 coat protein	nM	21.3
GUCAGCUCGUGAGGAUAUACAUGCGUGCUUCGGCACGUAUGAUAGAUCACAUGAGGAUCACCCAUGUAGAAGGUACGAGCUGAU [ENG2/4-C2] (Eterna round: R96, puzzle: Exclusion NG 2)	apparent KD of MS2 coat protein	nM	15.2
AGUUGGCGAGGAUAUACAUGAGGAUCACCCAUGUGAGAGGUACUAGUGAGGUCGAUUAGUAGAAGGCGCUGACA [Mat X3R4 m10] (Eterna round: R97, puzzle: Exclusion 3)	apparent KD of MS2 coat protein	nM	48.3
GGUCGGCGAGGAUAUACAUGAGGAUCACCCAUGUGAUAGAUUGCACGCGUACGUGUAUGUAGAAGGCGCUGACG [JL-ex3-3.30 salish99 mod] (Eterna round: R96, puzzle: Exclusion 3)	apparent KD of MS2 coat protein	nM	32.8
